This collection of values is drawn from patent US20240207292A1.

target: recombinant human dipeptidyl peptidase IV (DPPIV) (Homo sapiens (Human), UniProt P27487)
Sequence (P27487 whole entry): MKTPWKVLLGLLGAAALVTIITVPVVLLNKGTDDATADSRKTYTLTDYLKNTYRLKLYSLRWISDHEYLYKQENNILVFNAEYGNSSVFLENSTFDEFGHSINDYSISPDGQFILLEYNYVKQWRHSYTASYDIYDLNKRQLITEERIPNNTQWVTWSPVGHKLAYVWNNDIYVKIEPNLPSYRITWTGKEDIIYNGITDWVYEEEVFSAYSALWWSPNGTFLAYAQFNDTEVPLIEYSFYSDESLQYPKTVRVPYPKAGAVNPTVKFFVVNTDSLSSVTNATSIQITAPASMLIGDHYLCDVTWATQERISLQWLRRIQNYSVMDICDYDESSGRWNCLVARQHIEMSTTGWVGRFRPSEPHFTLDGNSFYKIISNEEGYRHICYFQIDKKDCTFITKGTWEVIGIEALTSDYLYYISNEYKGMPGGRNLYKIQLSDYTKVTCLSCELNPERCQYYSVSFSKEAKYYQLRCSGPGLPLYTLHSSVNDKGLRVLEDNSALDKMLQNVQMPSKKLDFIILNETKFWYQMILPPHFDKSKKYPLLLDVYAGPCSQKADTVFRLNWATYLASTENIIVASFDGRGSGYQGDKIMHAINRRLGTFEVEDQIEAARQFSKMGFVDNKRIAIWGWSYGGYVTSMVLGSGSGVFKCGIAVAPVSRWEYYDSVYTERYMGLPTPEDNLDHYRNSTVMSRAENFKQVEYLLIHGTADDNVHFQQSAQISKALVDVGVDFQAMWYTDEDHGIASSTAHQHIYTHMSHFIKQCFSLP
procedure_details: In vitro assay dipeptidyl peptidase IV IC50 (Example 21)
Format: biochemical
applied_conditions: Gly-Pro-AMC; 0.1 nM enzyme
Square brackets hold non-standard residues; d marks the D form. Peptide text beside a SMILES is read from it. * marks the point of attachment. X3 = O=C1CN2CCN3CC(=O)O[C]4(C3)CN(CC(=O)*)CCN3CC(=O)O[C](C2)(C3)[Lu]4[O]1; X4 = O=C1CN2CCN3CC(=O)O[C]4(C3)CN(CC(=O)*)CCN3CC(=O)O[C](C2)(C3)[Ga]4[O]1; X2 = O=C(O)CN1CCCN(CC(=O)O)CCN(CC(=O)*)CCCN(CC(=O)O)CC1; boroPro = OB(O)[C@@H]1CCCN1*
IC50: recorded values
quantity: IC50 (µM)

molecule	quantity	relation_symbol	test_value
CC(C)[C@H](NC(=O)CNC(=O)CC[C@@H]1C(=O)[O][Lu]23[O]C(=O)CN4CCN(CCN1CCN(CC4)CC(=O)[O]2)CC(=O)[O]3)C(=O)N[C@H](C)C(=O)N1CCC[C@H]1B(O)O	IC50	>	100
CC(C)[C@H](NC(=O)CNC(=O)CNC(=O)CN1CCCN(CC(=O)O)CCN(CC(=O)O)CCCN(CC(=O)O)CC1)C(=O)N[C@@H](C)C(=O)N1CCC[C@H]1B(O)O [6522L] (X2-GGVA-boroPro)	IC50	=	3.4
C[C@@H](NC(=O)[C@H]1CC[C@H](CNC(=O)CN2CCN3CCN4CCN(CC2)CC(=O)[O][Ga]([O]C(=O)C3)[O]C(=O)C4)CC1)C(=O)N1CCC[C@H]1B(O)O	IC50	=	80
CC(C)[C@H](NC(=O)CNC(=O)CNC(=O)CN1CCN2CC(=O)O[C]3(CN4CCN5CC(=O)O[C](C1)(C5)[Lu]3[O]C(=O)C4)C2)C(=O)N[C@H](C)C(=O)N1CCC[C@H]1B(O)O (some centres unmarked) [6522LU] (X3-GGV[dA]-boroPro)	IC50	>	100
CC(C)[C@H](NC(=O)CNC(=O)CNC(=O)CN1CCN2CC(=O)O[C]3(CN4CCN5CC(=O)O[C](C1)(C5)[Ga]3[O]C(=O)C4)C2)C(=O)N[C@H](C)C(=O)N1CCC[C@H]1B(O)O (some centres unmarked) [6522GA-02] (X4-GGV[dA]-boroPro)	IC50	>	100

###

// reported log10 IC50 for each item listed
target: recombinant human fibroblast activation protein (FAP) (Homo sapiens (Human))
Sequence (Q12884 whole entry): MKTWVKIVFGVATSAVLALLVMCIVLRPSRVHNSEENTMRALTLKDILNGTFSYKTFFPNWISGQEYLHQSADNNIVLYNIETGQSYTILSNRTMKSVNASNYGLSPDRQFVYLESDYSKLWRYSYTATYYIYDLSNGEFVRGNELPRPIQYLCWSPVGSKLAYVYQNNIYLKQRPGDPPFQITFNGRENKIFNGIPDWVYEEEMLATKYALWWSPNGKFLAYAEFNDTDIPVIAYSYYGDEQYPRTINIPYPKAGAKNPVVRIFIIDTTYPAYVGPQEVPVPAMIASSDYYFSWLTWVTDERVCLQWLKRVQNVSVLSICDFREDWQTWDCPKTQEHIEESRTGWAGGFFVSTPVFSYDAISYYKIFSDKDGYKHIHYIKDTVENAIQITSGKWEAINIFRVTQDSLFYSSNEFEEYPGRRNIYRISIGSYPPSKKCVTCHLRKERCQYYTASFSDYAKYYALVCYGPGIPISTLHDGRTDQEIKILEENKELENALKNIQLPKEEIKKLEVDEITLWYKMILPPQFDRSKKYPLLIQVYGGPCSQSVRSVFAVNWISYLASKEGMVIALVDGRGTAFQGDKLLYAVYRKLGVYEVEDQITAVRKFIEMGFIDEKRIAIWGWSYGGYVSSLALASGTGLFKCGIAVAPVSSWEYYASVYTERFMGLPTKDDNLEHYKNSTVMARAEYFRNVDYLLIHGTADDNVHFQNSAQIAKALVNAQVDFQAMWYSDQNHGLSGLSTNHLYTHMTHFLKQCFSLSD
procedure_details: In vitro assay fibroblast activation protein IC50 (Example 21)
Type: biochemical
quantity: log10 IC50 (log10 of the value in nM)

compound	log10 IC50
C[C@@H](NC(=O)c1ccc(NN)nc1)C(=O)N1CCC[C@H]1B(O)O	2.23
C[C@@H](NC(=O)c1ccc(NC(=O)CCNC(=O)CN2CCN3CCN4CCN(CC2)CC(=O)[O][Lu]([O]C(=O)C3)[O]C(=O)C4)cc1)C(=O)N1CCC[C@H]1B(O)O [6590LU]	-0.40
C[C@@H](NC(=O)c1ccc(NC(=O)CN2CCN3CCN4CCN(CC2)CC(=O)[O][Lu]([O]C(=O)C3)[O]C(=O)C4)cc1)C(=O)N1CCC[C@H]1B(O)O [6572LU]	0.98
C[C@@H](NC(=O)c1ccc(CNC(=O)CN2CCN(CC(=O)O)CCN(CC(=O)O)CCN(CC(=O)O)CC2)nc1)C(=O)N1CCC[C@H]1B(O)O	0.38
C[C@@H](NC(=O)c1ccc(NNC(=O)CN2CCN3CCN(CC(=O)O)CCN(CC2)CC(=O)[O][Cu][O]C(=O)C3)cc1)C(=O)N1CCC[C@H]1B(O)O [5183BU]	1.01
C[C@@H](NC(=O)c1ccc(CNC(=O)CN2CCN3CCN4CCN(CC2)CC(=O)[O][Lu]([O]C(=O)C3)[O]C(=O)C4)nc1)C(=O)N1CCC[C@H]1B(O)O [6556LU]	0.46
C[C@@H](NC(=O)c1ccc(CNC(=O)CN2CCN3CCN4CCN(CC2)CC(=O)[O][Ga]([O]C(=O)C3)[O]C(=O)C4)nc1)C(=O)N1CCC[C@H]1B(O)O [6556GA]	1.51
C[C@@H](NC(=O)c1ccc(NC(=O)CCCCNC(=O)CN2CCN3CCN4CCN(CC2)CC(=O)[O][Ga]([O]C(=O)C3)[O]C(=O)C4)cc1)C(=O)N1CCC[C@H]1B(O)O	1.18
CC(C)[C@H](NC(=O)c1ccc(CNC(=O)CN2CCN3CCN4CCN(CC2)CC(=O)[O][Ga]([O]C(=O)C3)[O]C(=O)C4)cc1)C(=O)N[C@H](C)C(=O)N1CCC[C@H]1B(O)O	1.81
C[C@@H](NC(=O)c1ccc(CNC(=O)CN2CCN3CCN4CCN(CC2)CC(=O)[O][Ga]([O]C(=O)C3)[O]C(=O)C4)cc1)C(=O)N1CCC[C@H]1B(O)O [6555GA]	1.74
C[C@@H](NC(=O)c1ccc(NNC(=O)CCNC(=O)CN2CCN(CC(=O)O)CCN(CC(=O)O)CCN(CC(=O)O)CC2)cc1)C(=O)N1CCC[C@H]1B(O)O [6488S, DOTA-betaAla-HyBz-D-Ala-boroPro]	0.94

###

target: recombinant human prolyl oligopeptidase (PREP) (Homo sapiens (Human), UniProt P48147)
Sequence (P48147 whole entry): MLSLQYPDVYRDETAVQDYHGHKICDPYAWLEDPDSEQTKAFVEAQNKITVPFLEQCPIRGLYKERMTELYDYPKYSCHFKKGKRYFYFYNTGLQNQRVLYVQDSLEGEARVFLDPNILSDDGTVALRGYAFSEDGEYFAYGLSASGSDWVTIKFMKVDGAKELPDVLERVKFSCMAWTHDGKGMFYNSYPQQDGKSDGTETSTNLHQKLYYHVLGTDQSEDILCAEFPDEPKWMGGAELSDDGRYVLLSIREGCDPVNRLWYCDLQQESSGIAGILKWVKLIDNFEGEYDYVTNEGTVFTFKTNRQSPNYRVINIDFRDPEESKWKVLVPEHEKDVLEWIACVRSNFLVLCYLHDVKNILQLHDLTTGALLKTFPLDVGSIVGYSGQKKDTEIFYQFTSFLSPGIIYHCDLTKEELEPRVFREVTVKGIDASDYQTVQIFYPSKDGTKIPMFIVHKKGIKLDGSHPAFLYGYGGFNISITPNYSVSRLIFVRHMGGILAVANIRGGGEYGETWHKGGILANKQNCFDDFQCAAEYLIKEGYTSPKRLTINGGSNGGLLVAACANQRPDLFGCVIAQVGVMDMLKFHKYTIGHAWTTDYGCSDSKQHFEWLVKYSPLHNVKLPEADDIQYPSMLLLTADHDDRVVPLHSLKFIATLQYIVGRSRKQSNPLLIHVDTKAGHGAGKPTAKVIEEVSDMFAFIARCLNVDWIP
procedure_details: In vitro assay prolyl oligopeptidase IC50 (Example 21)
Assay type: biochemical
applied_conditions: Z-Gly-Pro-AMC; 0.6 nM enzyme
Square brackets hold non-standard residues; d marks the D form. Peptide text beside a SMILES is read from it. * marks the point of attachment. X3 = O=C1CN2CCN3CC(=O)O[C]4(C3)CN(CC(=O)*)CCN3CC(=O)O[C](C2)(C3)[Lu]4[O]1; X4 = O=C1CN2CCN3CC(=O)O[C]4(C3)CN(CC(=O)*)CCN3CC(=O)O[C](C2)(C3)[Ga]4[O]1; X2 = O=C(O)CN1CCCN(CC(=O)O)CCN(CC(=O)*)CCCN(CC(=O)O)CC1; boroPro = OB(O)[C@@H]1CCCN1*
Below, each entry is listed with its recorded IC50.

compound	measurement_unit	relation_symbol	IC50
CC(C)[C@H](NC(=O)CNC(=O)CNC(=O)CN1CCN2CC(=O)O[C]3(CN4CCN5CC(=O)O[C](C1)(C5)[Lu]3[O]C(=O)C4)C2)C(=O)N[C@H](C)C(=O)N1CCC[C@H]1B(O)O (stereo partly shown) [6522LU] (X3-GGV[dA]-boroPro)	µM	=	19
C[C@@H](NC(=O)[C@H]1CC[C@H](CNC(=O)CN2CCN3CCN4CCN(CC2)CC(=O)[O][Lu]([O]C(=O)C3)[O]C(=O)C4)CC1)C(=O)N1CCC[C@H]1B(O)O [6952 LU]	µM	=	21
CC(C)[C@H](NC(=O)CNC(=O)CC[C@H](C(=O)O)N1CCN(CC(=O)O)CCN(CC(=O)O)CCN(CC(=O)O)CC1)C(=O)N[C@H](C)C(=O)N1CCC[C@H]1B(O)O [6795D]	µM	=	7.45
C[C@@H](NC(=O)CN1CCN(CC(=O)O)CCN(CC(=O)O)CCN(CC(=O)O)CC1)C(=O)N1CCC[C@H]1B(O)O [compound 4535]	µM	>	10
CC(C)[C@H](NC(=O)CNC(=O)CCC(C(=O)O)N1CCN(CC(=O)O)CCN(CC(=O)O)CCN(CC(=O)O)CC1)C(=O)N[C@H](C)C(=O)N1CCC[C@H]1B(O)O (stereo partly shown) [compound 6795]	µM	=	5.52
C[C@@H](NC(=O)[C@H]1CC[C@H](CNC(=O)CN2CCN(CC(=O)O)CCN(CC(=O)O)CCN(CC(=O)O)CC2)CC1)C(=O)N1CCC[C@H]1B(O)O [compound 6952]	µM	=	4.6
CC(C)[C@H](NC(=O)CNC(=O)CNC(=O)CN1CCN2CC(=O)O[C]3(CN4CCN5CC(=O)O[C](C1)(C5)[Ga]3[O]C(=O)C4)C2)C(=O)N[C@H](C)C(=O)N1CCC[C@H]1B(O)O (stereo partly shown) [6522GA-02] (X4-GGV[dA]-boroPro)	µM	=	19
C[C@@H](NC(=O)[C@H]1CC[C@H](CNC(=O)CN2CCN3CCN4CCN(CC2)CC(=O)[O][Ga]([O]C(=O)C3)[O]C(=O)C4)CC1)C(=O)N1CCC[C@H]1B(O)O [6952 GA]	µM	=	50
CC(C)[C@H](NC(=O)CNC(=O)CC[C@@H]1C(=O)[O][Lu]23[O]C(=O)CN4CCN(CCN1CCN(CC4)CC(=O)[O]2)CC(=O)[O]3)C(=O)N[C@H](C)C(=O)N1CCC[C@H]1B(O)O [6795DLU]	µM	=	10
CC(C)[C@H](NC(=O)CNC(=O)CNC(=O)CN1CCCN(CC(=O)O)CCN(CC(=O)O)CCCN(CC(=O)O)CC1)C(=O)N[C@@H](C)C(=O)N1CCC[C@H]1B(O)O [6522L] (X2-GGVA-boroPro)	µM	=	0.0076
